Test system: UACC-62 melanoma
Test: NCI-60 one-dose screen, 48 h (100 = growth as untreated, 0 = no growth, -100 = all killed)
Details: 10 µM
Compounds without any hit were thinned out: in the full panel of roughly 83,000, 20% have a hit.
Consider the following compounds; for each one, report its growth.
Kindly answer with a numeric value in %, unit omitted.

(Q) I am curious: what growth value has been reported for O=C(/C=C/c1cccc(Oc2ccc(Cl)cc2)c1)c1ccccc1 ?
(A) 100

(Q) Requested read-out: growth. Entry: COc1ccc(C(=O)/C=C/c2ccc(OCc3cccc(C(F)(F)F)c3)c(OC)c2)cc1OC
(A) 78.4

(Q) Value lookup for growth; key = CC(=O)/C=C/c1ccc(OCc2ccc(Cl)cc2)cc1
(A) 95.5

(Q) Recorded growth for CC(C)(C)CC(N)=O , please?
(A) 103

(Q) Look at this compound and give its reported growth. COc1ccc(C(=O)/C=C/c2ccc(OCc3ccc(Cl)cc3)cc2)cc1OC
(A) 96.1

(Q) What value of growth has been recorded for this entry: CC[C@]12CN3CCc4c([nH]c5ccccc45)[C@@](C(=O)OC)(c4cc5c(cc4OC)N(C)[C@H]4[C@@](O)(C(=O)OC)[C@H](OC(C)=O)[C@]6(CC)C=CCN7CC[C@]54[C@@H]76)CC(C3)[C@H]1O2 (stereo not given in full)
(A) 26.6

(Q) Returns the measured growth for the input compound. Input: CC(=O)/C=C/c1ccc(N(CCO)Cc2ccc(C(C)(C)C)cc2)cc1
(A) 76.5

(Q) Which measured growth value corresponds to CC(=O)/C=C/c1ccc(OCc2ccc(C(C)(C)C)cc2)cc1 ?
(A) 74.2

(Q) Using the record for CC(=O)/C=C/c1ccc(N(C)Cc2ccc(C(C)(C)C)cc2)cc1 , report its growth.
(A) 78.8

(Q) Look up growth: CCN(Cc1ccccc1)c1ccc(/C=C2\COc3ccccc3C2=O)cc1
(A) 87

###

System: SF-268 CNS
Test: NCI-60 one-dose screen, 48 h (100 = growth as untreated, 0 = no growth, -100 = all killed)
Conditions: 10 µM unless noted
This is part of a sample that, as a whole, favours compounds with a hit. Of some 83,000 tested, about 20% had one in any assay.
For each record, write down the corresponding growth.
Give just the number in %; leave the unit off.

(Q) Bench note: what growth did COc1cc(-c2nc3occn3c2-c2ccnc(NCCCNS(=O)(=O)c3ccc(O)cc3)n2)ccc1F show?
(A) 110

(Q) Please report the recorded growth for Oc1ccccc1C=Nc1ccc(N2CCN(c3ccccc3)CC2)cc1 .
(A) 99.2

(Q) Requested field: growth. Item: O=C(NCc1ccc(Cn2c(=O)sn(-c3ccc(Cl)cc3)c2=O)cc1)OCc1ccc2c(Cl)cc(Cl)c(O)c2n1
(A) 54.6

(Q) Can you share its growth? I mean this compound: CON1CCC[C@]2(C)[C@H]3CC[C@@H]4[C@H]5[C@@H](O)C(C)(C)CC[C@]5(CO)CC[C@@]4(C)[C@]3(C)CC[C@H]2C1(C)C
(A) 100

###

System: NCI-H522 lung
Assay: NCI-60 one-dose screen, 48 h (100 = growth as untreated, 0 = no growth, -100 = all killed)
Conditions: 10 µM unless noted
This is part of a sample that, as a whole, favours compounds with a hit. Of some 83,000 tested, about 20% had one in any assay. The source made the active and inactive calls. How the source made its calls: active means growth percent below 10; inactive means the rest.
property_measured: growth

(Q) Please look up its growth: OCCN1CCN(c2cc(-c3cccc(OC(F)(F)F)c3)nc3ccc(N4CCCC4)cc23)CC1
(A) 66.4% (inactive)

(Q) What growth value was documented for this molecule, O=C(Nc1ccc2ccccc2c1)c1cc2ccccc2cc1O ?
(A) 62.6% (inactive)

(Q) Item Nc1ccc(-c2ccc(N)c(Br)c2)cc1Br has what recorded growth?
(A) 57% (inactive)

(Q) Consider the molecule shown here: COc1ccc(C2=C(CN)C(O)NC(=NCC(=O)c3ccc4ccccc4c3)N2)cc1 (stereo not given) What is its recorded growth?
(A) 86% (inactive)

(Q) Reported growth for CN1CCN(c2ccc(/C=C/C(=O)c3ccc(O)cc3)cc2)CC1 : what is it?
(A) 88% (inactive)

(Q) Name the recorded growth for COc1cc(C=O)ccc1Oc1ccc([N+](=O)[O-])cc1[N+](=O)[O-] .
(A) 94.3% (inactive)

(Q) May I ask what growth has been recorded for O=S(=O)(Nc1cc(Sc2cccc3cccnc23)c(O)c2ccccc12)c1ccc(F)cc1 ?
(A) -48.7% (active)

(Q) Which value of growth has been reported for CN1Cn2c(ccc2C(F)(F)F)C(=O)CS1(=O)=O in the records?
(A) 103% (inactive)

(Q) Need growth of CN(C)C(=O)c1cc2cnc(Nc3ccc(-c4csc5c(=S)cc(N6CCOCC6)oc45)cc3)nc2n1C1CCCC1 , thanks.
(A) 4.24% (active)

(Q) For the molecule O=C1/C(=C/c2ccc(-c3cccc(C(F)(F)F)c3)o2)SC(=S)N1CCc1ccc(O)cc1 , what growth is on record?
(A) 4% (active)

(Q) Param item = CCOC(=O)C(=CCC(C)C)C(=O)OCC ; retrieve measured growth.
(A) 104% (inactive)

(Q) Endpoint output: growth of Cc1ccc(-c2nc3nc(-c4ccccc4)nc(N4CCCNCC4)c3o2)cc1 . Value?
(A) -69.6% (active)

(Q) What value of growth has been recorded for this entry: CC(=O)N1N=C(c2ccc(Nc3nc(Nc4ccc(F)cc4)nc(Nc4ccc(Cl)cc4)n3)cc2)CC1c1ccc(N(C)C)cc1 (stereo not given)
(A) 47.8% (inactive)

(Q) Dear colleague, I am looking for the recorded growth of the following molecule: O=C(NNc1ccccc1)c1ccccc1
(A) 48.1% (inactive)

(Q) What does the data say about its growth? Entry: COc1ccc(N2CCN(S(=O)(=O)c3oc(-c4ccccc4)nc3C#N)CC2)cc1
(A) 25.2% (inactive)

(Q) I am curious: what growth value has been reported for CN1C(=O)/C(=C/c2ccc(C(=O)Nc3ncc(Cc4ccccc4Cl)s3)cc2)SC1=S ?
(A) 64.2% (inactive)

(Q) Recorded growth of COc1cc2nc3cc([N+](=O)[O-])ccc3c(NCCNCC(C)(C)O)c2cc1OC , please.
(A) -40.3% (active)

(Q) Looking for the measured growth of Cn1cc(-c2csc(-c3c[nH]c4ccc(F)cc34)n2)c2cnccc21 , can you help?
(A) -78.5% (active)

(Q) Need growth of Nc1nc(N)c2c(n1)NC(c1cccc(Nc3ccnc4cc(C(F)(F)F)ccc34)c1)CC(c1ccc(F)cc1)=N2 (stereo not given) , thanks.
(A) 48.2% (inactive)

(Q) // lookup growth for COc1ccc(NC(=O)Nc2ccccc2CNc2nc(Nc3ccc(OCCN4CCCC4)cc3)ncc2Cl)cc1
(A) -3.26% (active)

(Q) Reported growth, molecule Cn1cc(-c2csc(-c3cn(CCOC(N)=O)c4ccccc34)n2)c2cccnc21 : ____
(A) 24.2% (inactive)

(Q) So what's the measured growth for this one? CCCN1C(=O)/C(=c2\sc3n(c2=O)C2C(NN=3)N(CC)C(=O)N2CC)c2ccccc21 (stereo not given)
(A) 1.15% (active)

(Q) Param item = O=C(/C=C/c1ccc([N+](=O)[O-])cc1)c1ccccc1 ; retrieve measured growth.
(A) 70.4% (inactive)

(Q) May I ask what growth has been recorded for CCNC(=O)Oc1ccc(/C(=C(/C)Cc2ccc(OC)cc2)c2ccc(OCCN(CC)CC)cc2)cc1 ?
(A) 58.1% (inactive)

(Q) Name the reported growth value associated with the molecule c1ccc(-c2cc(-c3cc(-c4ccccc4)on3)no2)cc1
(A) 62.2% (inactive)

(Q) Reported growth for N=C(N)c1ccc(-c2ccc(-c3ccc(Cl)c(Cl)c3)s2)cc1 : what is it?
(A) -38.4% (active)

(Q) What value of growth has been reported for the following molecule? N#Cc1ccccc1OCC(=O)Nc1nc2c(s1)COc1ccccc1-2
(A) 103% (inactive)

(Q) Query: growth; subject: N#C/C(=N\Nc1ccc(Cl)cc1)C(=O)Nc1cc(-c2ccccc2)nn1-c1ccccc1
(A) 7.38% (active)

(Q) Entry CCc1c2c(nc3ccc(OCc4ccc(B5OC(C)(C)C(C)(C)O5)cc4)cc13)-c1cc3c(c(=O)n1C2)COC(=O)[C@]3(O)CC : reported growth = ?
(A) 3.47% (active)

(Q) Can you look up the measured growth of FC(F)(F)Sc1ccc(/C=C/c2cc(/C=C/c3ccc(SC(F)(F)F)cc3)n(-c3ccccc3)n2)cc1 for me?
(A) 89.4% (inactive)

(Q) Return reported growth; argument: CCOC(=O)c1c(-c2ccc(C)cc2)c(C#N)c(=O)n(-c2cccc(C(F)(F)F)c2)c1N
(A) 94.6% (inactive)

(Q) # input molecule: Cc1nc2sc(C(=O)Nc3cccc4ccccc34)c(N)c2cc1C(=O)/C=C/c1ccccc1 ; wanted: its growth
(A) -33.4% (active)

(Q) Could you share which growth value was measured for Nc1ccc(-c2nc3ccc4[nH]ncc4c3c3c2CCCC3)cc1F ?
(A) 22.5% (inactive)

(Q) Any idea what growth was measured for O=C(CCl)n1nnnc1Cc1ccccc1 ?
(A) 90.8% (inactive)

(Q) Endpoint output: growth of CN(C)CCCn1c2nc(=O)[nH]c(=O)c-2nc2cc(Cl)c(Cl)cc21 . Value?
(A) -23.7% (active)

(Q) Fill in the blank: the reported growth of NS(=O)(=O)c1ccc(C(=O)N=Nc2c(O)[nH]c3c(F)cccc23)cc1 is ____.
(A) 91.2% (inactive)

(Q) So what's the measured growth for this one? Cc1nc(Nc2ncc(C(=O)Nc3c(C)cccc3Cl)s2)cc(N2CCN(CCO)CC2)n1
(A) -1.57% (active)

(Q) Which value of growth has been reported for Nn1c(-c2ccc(Cl)cc2)nc2c(-c3ccc(Cl)cc3)nc3ccc(Cl)cc3c2c1=O in the records?
(A) 48.9% (inactive)

(Q) Consider the molecule Cc1nc2cccc(NCCCCC(=O)NO)c2c(=O)n1-c1ccccc1 and give its measured growth.
(A) 43.5% (inactive)

(Q) Record request: growth value, item Cc1ccc(NC(=O)c2sc3nc(C)c(C(=O)c4ccccc4)cc3c2N)cc1
(A) 88.2% (inactive)
